Examples of compounds with documented Day 18 (TGI %) follow.
# Tested on: HCT-116 colon cancer xenografts
# method_summary: Tumor growth inhibition of HCT-116 colon cancer xenografts in tumor-bearing nude mice (tumor volume, TGI %, RTV, T/C %)
# Format: in vivo, Balb/c Nude mice
# test_conditions: Day 18; G10-G16 groups; single IP 400 mg/kg

# compound, Day 18 (TGI %)
measured = [
    ("CCCCOC(=O)Nc1nc(=O)n(C2OC(COC(=O)COc3nc(Cl)c(Cl)cc3Cl)C(O)C2(F)F)cc1I (stereo not drawn)", "36.63%"),
    ("CCCCOC(=O)Nc1nc(=O)n([C@@H]2O[C@H](COC(=O)Cn3cnc([N+](=O)[O-])c3)C(O)C2(F)F)cc1I (stereo partly drawn)", "19.24%"),
    ("CCCCOC(=O)Nc1nc(=O)n(C2OC(COC(=O)COc3nc(Cl)c(Cl)cc3Cl)C(O)C2(F)F)cc1Br (stereo not drawn)", "21.59%"),
    ("O=C(COc1nc(Cl)c(Cl)cc1Cl)OC[C@H]1O[C@@H](n2cc(Br)c(NC(=O)OCc3ccccc3)nc2=O)C(F)(F)C1O (stereo partly drawn)", "18.11%"),
    ("O=C(COc1nc(Cl)c(Cl)cc1Cl)OCC1OC(n2cc(-c3cn(Cc4ccccc4)nn3)c(NC(=O)OCc3ccc([N+](=O)[O-])cc3)nc2=O)C(F)(F)C1O (stereo not drawn)", "36.04%"),
    ("CCCCOC(=O)Nc1nc(=O)n(C2OC(COC(=O)COc3nc(Cl)c(Cl)cc3Cl)C(O)C2(F)F)cc1-c1cn(Cc2ccccc2)nn1 (stereo not drawn)", "71.73%"),
]

* * *

# test_conditions: Day 21; G10-G16 groups; single IP 400 mg/kg; Mean±SEM

# molecule, Weight of mice, Day 21 / g
records = [
    ("CCCCOC(=O)Nc1nc(=O)n(C2OC(COC(=O)COc3nc(Cl)c(Cl)cc3Cl)C(O)C2(F)F)cc1-c1cn(Cc2ccccc2)nn1 (stereo not drawn)", 22.40),
    ("CCCCOC(=O)Nc1nc(=O)n(C2OC(COC(=O)COc3nc(Cl)c(Cl)cc3Cl)C(O)C2(F)F)cc1Br (stereo not drawn)", 21.55),
    ("O=C(COc1nc(Cl)c(Cl)cc1Cl)OC[C@H]1O[C@@H](n2cc(Br)c(NC(=O)OCc3ccccc3)nc2=O)C(F)(F)C1O (stereo partly drawn)", 19.47),
]

* * *

Examples of molecules with documented Weight of mice, Day 28 follow.
# test_conditions: Day 28; G10-G16 groups; single IP 400 mg/kg; Mean±SEM
measurement_kind: Weight of mice, Day 28 (g)

# molecule, units_symbol, recorded_value
records = [
    ("CCCCOC(=O)Nc1nc(=O)n(C2OC(COC(=O)COc3nc(Cl)c(Cl)cc3Cl)C(O)C2(F)F)cc1Br (stereo not drawn)", "g", 21.27),
    ("O=C(COc1nc(Cl)c(Cl)cc1Cl)OCC1OC(n2cc(-c3cn(Cc4ccccc4)nn3)c(NC(=O)OCc3ccc([N+](=O)[O-])cc3)nc2=O)C(F)(F)C1O (stereo not drawn)", "g", 23.08),
    ("CCCCOC(=O)Nc1nc(=O)n(C2OC(COC(=O)COc3nc(Cl)c(Cl)cc3Cl)C(O)C2(F)F)cc1-c1cn(Cc2ccccc2)nn1 (stereo not drawn)", "g", 21.95),
]
